The measured values listed here are drawn from PubChem BioAssay (NCI).

Tested on: HCT-116 colon
method_description: NCI-60 one-dose screen, 48 h
conditions: 10 µM unless noted
About 83,000 compounds went through this panel and 20% of them were active in at least one assay; those are over-represented in the sample as a whole. Active and inactive are the calls of the source. How the source made its calls: active means growth percent below 10; inactive means the rest.
# valid calls are True (active), False (inactive); nothing else

For this compound, state the assay outcome: `COc1ccc(/C=N/NC(=O)COCC(=O)N/N=C/c2ccc(OC)cc2)cc1`
False

// query: CC(C)C1CCC(C)C(O)C1 (stereo unspecified)
False

// query: CCCC1OC(c2ccco2)OCC1CC (stereo unspecified)
False

// query: `CCN(CC)CCOC(=O)Nc1c(C(C)C)cccc1C(C)C`
False

// query: `Nc1c(O)c(S(=O)(=O)O)c(O)c2c1C(=O)c1ccccc1C2=O`
True

// query: `CC(=O)Nc1ccc(/C=C2\SC(=S)N(/C=C(\C(C)=O)C(N)=O)C2=O)cc1`
False

* * *

Exercise: state measured growth for each of the molecules provided.
Tested on: HOP-92 NSCLC
method_description: NCI-60 one-dose screen, 48 h (100 = growth as untreated, 0 = no growth, -100 = all killed)
conditions: 10 µM unless noted
This is part of a sample that, as a whole, favours compounds with a hit. Of some 83,000 tested, about 20% had one in any assay. Active and inactive are the calls of the source. How the source made its calls: active means growth percent below 10; inactive means the rest.

I'm curious: which growth was measured for CC1(C)OC2C(CO)OC(n3ccc(=O)[nH]c3=O)C2O1 (configuration not stated) tested on HOP-92 NSCLC?
82.8% (inactive)

// query: CCC1CCC(C)NC1 (configuration not stated)
87.3% (inactive)

// query: CCC(C)C1CCC(O)CC1 (configuration not stated)
102% (inactive)

// query: CC(c1ccccc1)N(C)C (configuration not stated)
111% (inactive)

// query: `O=C(O)c1c[nH]c2ccccc2c1=O`
87% (inactive)

// query: `O=C(O)Cc1ccccn1`
99.1% (inactive)

// query: `COc1cc(CC#N)c([N+](=O)[O-])cc1OC`
99.8% (inactive)

// query: `Nc1nnc2cc(F)ccc2n1`
85.2% (inactive)

// query: `Cc1ccc(S(=O)(=O)Oc2ccc3sc4c(CO)ccc(NCCN(C)C)c4c(=O)c3c2)cc1`
-80.1% [100 µM] (active)

// query: CC(C)OCC(CCl)OC(=O)Nc1ccccc1 (configuration not stated)
89.5% (inactive)

// query: `S=c1nc2[nH]c3ccccc3c2n[nH]1`
55.7% (inactive)

// query: N#CCCN1C(=O)CCC1C(=O)O (configuration not stated)
109% (inactive)

// query: `COC(=O)c1ccc([N+](=O)[O-])c(C)c1`
90.4% (inactive)

// query: `Nc1ccc2c(c1)Cc1cc(N)c(N)cc1-2`
101% (inactive)

// query: `O=[N+]([O-])c1ccc2[nH]c(=S)n(/C=C(/c3ccc(Cl)cc3Cl)S(=O)(=O)Cc3ccc(Cl)cc3Cl)c2c1`
112% (inactive)

// query: `O=c1[nH]c(=O)c2cc(Cl)cc(Cl)c2[nH]1`
104% (inactive)

// query: `CCOC(=O)C(CCC#N)(CCC#N)C(=O)OCC`
84% (inactive)

// query: `Cc1cc(Cc2ccccc2)c(O)c(Cc2ccccc2)c1`
90% (inactive)

// query: `CCOC(=O)CNC`
91.1% (inactive)

// query: `CC(=O)N=c1ccc2nc3c(cc(N)c4ccccc43)oc-2c1`
-56.9% (active)

// query: `Nc1ccc2ccccc2c1-c1c(N)ccc2ccccc12`
52.9% (inactive)

// query: `CNc1ccccc1C(=O)N/N=C/C=C/c1ccccc1`
69.3% (inactive)

// query: CC(=O)C1C(=O)C(=O)N(c2cccc([N+](=O)[O-])c2)C1=O (configuration not stated)
95.6% (inactive)

// query: `CSCC[C@@H]1C(=O)N(C)[C@H](C(C)(C)C)N1C(=O)c1ccccc1`
108% (inactive)

// query: `CCC(=O)Oc1c(C)cc(O)c2ccccc12`
79.5% (inactive)

// query: `Nc1c(Br)cc(O)c2c1C(=O)c1ccccc1C2=O`
70.9% (inactive)

// query: `CCCCCC(=O)OCCC1CCCCC1`
70% (inactive)

* * *

Test system: HS 578T breast
method_description: NCI-60 one-dose screen, 48 h
conditions: 10 µM unless noted
About 83,000 compounds went through this panel and 20% of them were active in at least one assay; those are over-represented in the sample as a whole. Active and inactive are the calls of the source. How the source made its calls: active means growth percent below 10; inactive means the rest.
# valid calls are true = active, false = inactive; nothing else

For this compound, state the assay outcome: CC(c1ccccc1)N1C(=O)CSC1=S (stereo not drawn)
false

// query: CN1CCCN(C(c2ccccc2)c2ccc(Br)cc2)CC1 (stereo not drawn)
false

// query: `CC(=O)N(C(C)=O)c1ccc(C)cc1`
false

// query: `CN(CCCN(C)CCC1CCCCC1)CCC1CCCCC1`
false

// query: `NC(CCl)=NCC12CC3CC(CC(C3)C1)C2`
false

// query: `Cc1cc(CC(=O)NCCO)n(CCO)c(=O)c1`
false

// query: `Cc1ccc2nc(-c3ccc(N=Cc4ccccc4O)cc3)sc2c1`
false

// query: `ClCc1cccc2c(CCl)cccc12`
false

// query: `Cc1ccc(C)c(CCO)c1`
false

// query: `CCN(C(=O)Nc1ccccc1Cl)c1ccccc1`
false

// query: COC(=O)C1(CC(C)=O)NC(=S)NC(=O)C1C#N (stereo not drawn)
false

// query: `CCCCN(C=S)CCCC`
false

// query: `COc1ccc(Nc2cc(Cl)ccc2C(=O)O)cn1`
false

// query: `COc1cc(C(=O)N2CCN(c3ccccc3)CC2)c2ccccc2n1`
false

// query: `Nc1c(Br)cc(O)c2c1C(=O)c1ccccc1C2=O`
false

// query: `CCC(=O)C1C(=O)c2ccccc2C1=O`
false

// query: `COc1cc(CC#N)c([N+](=O)[O-])cc1OC`
false

// query: `c1ccc(Nc2ccccn2)nc1`
false

// query: `COc1ccc(Br)c2c1C(=O)CC2`
false

// query: `C1=NCCc2ccccc21`
false

// query: `Cn1c2ccccc2c2nnc(NCCCCO)nc21`
false

// query: `CCCCNC(=O)c1ccc(OCC)cc1`
false

// query: `O=[N+]([O-])c1ccc(-c2nc(N(CCO)CCO)c3ccccc3n2)o1`
true

// query: `CCOC(=O)/C(C#N)=C\c1c[nH]c2ccccc12`
false

// query: COC1OC(C(O)C(O)CO)C(O)C(O)C1O (stereo not drawn)
false

// query: CN1CCCN(C(c2ccccc2)c2ccc(Cl)cc2)CC1 (stereo not drawn)
false

// query: C=C1C(=O)C2CCC1C2 (stereo not drawn)
false

// query: `Oc1ccc(N=Cc2ccc(OCc3ccccc3)cc2)cc1`
false

* * *

System: KM12 colon
method_description: NCI-60 one-dose screen, 48 h (100 = growth as untreated, 0 = no growth, -100 = all killed)
conditions: 10 µM unless noted
About 83,000 compounds went through this panel and 20% of them were active in at least one assay; those are over-represented in the sample as a whole.
readout_type: growth (%)
Enter your answer as a number in %; do not include the unit.

Record request: growth value, item `OC1Cc2ccccc2C1`
98.5

// query: `O=C(O)Cc1cccc2ccccc12`
107

// query: NCC(O)C(O)C(O)C(O)CO (configuration not stated)
98.5

// query: `C/C(=N\Nc1ccc([N+](=O)[O-])cc1[N+](=O)[O-])c1ccc(Br)cc1`
93.3

// query: `COc1c(CNC(=O)CCl)cc2[nH]c(C)cc2c1CNC(=O)CCl`
59.2

// query: `CC(=O)N(C(C)=O)c1ccc(C)cc1`
103

// query: `CCCCCCCCCCCCCCCCCCSC(=N)N`
64.5

// query: CC(=O)NC(O)C(Cl)Cl (configuration not stated)
103

// query: `OCCNc1ccccc1`
101

// query: `CC(=O)c1cccc(N(C)S(=O)(=O)c2ccc(C)cc2)c1`
49.8

// query: `O=C(OC1CCCC1)c1ccccc1Cl`
105

// query: `C=C(c1ccc(N(C)C)cc1)c1ccc(N(C)C)cc1`
26.5

// query: `CCOc1ccc(NC(=S)N2CCC(CCCC3CCN(C(=S)Nc4ccc(OCC)cc4)CC3)CC2)cc1`
90.6

// query: `C=CCN1CCCC1=O`
110

// query: `CC(=O)NNC(=S)N/C=C/c1c(C)ccc([N+](=O)[O-])c1[N+](=O)[O-]`
97.2

// query: CC1(c2ccccc2)CO1 (configuration not stated)
108

// query: `Nc1ccc2ccccc2c1-c1c(N)ccc2ccccc12`
25.7

// query: `C=C(C)[C@@H]1CC[C@]2(CO)CC[C@]3(C)[C@H](CC[C@@H]4[C@@]5(C)CC[C@H](O)C(C)(C)[C@@H]5CC[C@]43C)[C@@H]12`
49.1

// query: `Oc1ccc(N=Cc2ccc(OCc3ccccc3)cc2)cc1`
92.8

// query: `COc1cc(CC#N)c([N+](=O)[O-])cc1OC`
104

// query: `CCOC(=O)c1cc(Cl)c(O)c(Cl)c1`
108

// query: `NC(=S)N/N=C/c1ccc(Cl)cc1`
113

// query: `CCOP(=O)(OCC)/C(=C\N1C(=O)CC(=O)NC1=S)C(=O)OC`
105

// query: `CCCc1cccc(CCC)c1NC(=O)Nc1cc(Cl)cc(Cl)c1`
101

// query: `CCOc1ccc2c(c1)c(C)cc(C)[n+]2CC`
17.6

// query: `COc1cccc2c1Cc1ccccc1-2`
104

// query: COC1C(=O)CCC2(CO2)C1(O)C1(C)OC1CCC(C)C (configuration not stated)
74

// query: `CCC(/C=C\C(C)=O)CC`
105

// query: `CC(C)N(CCCC#N)C(C)C`
105

// query: `CC(C)=CCC[C@@H](C)[C@H]1CC[C@@]2(C)C3=C(CC[C@]12C)[C@@]1(C)CC[C@H](O)C(C)(C)[C@@H]1CC3`
109

// query: `CC(C)C(C)(C)C(=O)C(C)(C)C(C)(C)C`
107

// query: `CCOC(=O)c1c(C)[nH]c(C)c1C=O`
104

// query: `Nc1c(O)c(S(=O)(=O)O)c(O)c2c1C(=O)c1ccccc1C2=O`
5.95

// query: `C1CCc2onc(-c3noc4c3CCCCC4)c2CC1`
107

// query: O=C1NC(=O)C(c2ccccc2)O1 (configuration not stated)
112

// query: Nc1ncnc2c1ncn2C1OC(CO)C2OC21 (configuration not stated)
109

// query: `O=S(=O)(O)C(C(I)I)S(=O)(=O)O`
103

// query: `CCCCc1ccc2nc(NC(=O)OC)[nH]c2c1`
-12.2

// query: Nc1ccccc1SC1CC(=O)N(c2ccc(Cl)c(Cl)c2)C1=O (configuration not stated)
100

// query: `O=[n+]1ccn([O-])c2ccccc21`
99

// query: `CC(=O)Nc1ncc(S(=O)(=O)c2ccc([N+](=O)[O-])cc2)s1`
116

// query: `CCCCNc1ccc(-c2ccc(NCCCC)cc2)cc1`
56.9

// query: `CN(C)c1ncnc2c1cnn2C`
104

// query: `CCC(=O)Oc1c(C)cc(O)c2ccccc12`
88.6

// query: `O=C1NC(=O)/C(=C\c2ccncc2)N1`
86.9

// query: `C=C1C(=O)C2CCN1CC2`
102

// query: COc1cc(OC)c(NC(=O)C(Sc2nc(C)cc(C)c2C#N)c2ccccc2)cc1Cl (configuration not stated)
96.4

// query: `COc1cc(C(=O)N2CCN(c3ccccc3)CC2)c2ccccc2n1`
2.35

// query: `COc1nc(Nc2cccc(C(F)(F)F)c2)nc(OC)n1`
97.8

// query: `CN(C)c1ccc2nc3ccc(=[N+](C)C)cc-3oc2c1`
35.1

// query: COc1ccc(C2CC(c3ccccc3)=Nc3ccccc3S2)cc1 (configuration not stated)
87.4

// query: `CCOc1ccncc1[N+](=O)[O-]`
101
